test system: MDA-MB-435; experiment: NCI tumour cell line growth inhibition, 48 h
Experimental readout: TGI (µM)

INSERT INTO results (molecule, modifier_sign, reported_measurement) VALUES
  ('CCC1(O)CC2CC(=O)OC2C1O (stereo unspecified)', '>', 100),
  ('COC1CCC(N2C(=O)CNc3ncc(-c4ccc(C(C)(C)O)nc4)nc32)CC1 (stereo unspecified)', '=', 3.28),
  ('COC(=O)[C@H]1CO[C@@H](C(C)(C)C)N1C(=O)N1C=CC(=O)C[C@@H]1C', '>', 100),
  ('Cc1ccc(SCC(CSCCO)OCn2cnc3c2NC(N)=NC32OCCO2)cc1 (stereo unspecified)', '>', 100),
  ('O=C1C(Cl)=C(Nc2cccc(Cl)c2)C(=O)N1Cc1ccc(Cl)cc1Cl', '=', 16),
  ('Cc1cc(I)cc(CN(C)CCCCN2CCCCC2)c1O', '=', 12.9),
  ('O=C(Nc1ccccc1)NS(=O)(=O)c1ccc(-n2nc3c(c2-c2cccs2)Cc2ccccc2-3)cc1', '=', 58.3),
  ('O=C1/C(=C/c2cccc([N+](=O)[O-])c2)COc2ccc(O)cc21', '=', 4.05),
  ('COc1ccc(N2C(=O)C3c4[nH]c5ccccc5c4C4CCC(C(C)(C)C)CC4C3C2=O)c(C)c1 (stereo unspecified)', '>', 100),
  ('Cc1cccc(/C=N/NC(=S)Nc2ccccc2)n1', '>', 100),
  ('Cc1ccsc1/C=N/Nc1ncccn1', '>', 100),
  ('C=C(Br)C(C)(Cl)CCC(Br)C(C)(C)Cl (stereo unspecified)', '=', 86.3),
  ('COC(=O)c1cc2c(n1S(=O)(=O)c1ccc(C)cc1)C(=O)C(=O)c1[nH]cc(C(=O)OCc3ccccc3)c1-2', '=', 0.0301),
  ('Cn1cnc([N+](=O)[O-])c1Sc1nnc(-c2cccnc2)n1C', '=', 30.2),
  ('CC(C)CCC[C@@H](C)[C@H]1CC[C@H]2[C@@H]3CC=C4C[C@@H](C(C(=O)O)C(=O)O)CC[C@]4(C)[C@H]3CC[C@]12C', '=', 0.188),
  ('COC1=CC(=O)c2nc(-c3ccncc3)[nH]c2C1=O', '>', 100),
  ('C=C1c2nc3ccccc3n2C=C(c2ccccc2)N1c1ccc([N+](=O)[O-])cc1', '=', 32.6),
  ('Cc1nc(C(N)=S)sc1/C(CC(=O)C(=O)Nc1cccc2ccc(O)cc12)=N\NC(=O)c1ccncc1', '>', 100),
  ('O=C(Nc1ccccc1OC(F)(F)F)Nc1n[nH]c2ccccc12', '>', 100),
  ('CC(C)C1/C(=N/O)CC(c2ccccc2)N(N=O)C1c1ccccc1 (stereo unspecified)', '=', 72.4),
  ('Cc1cn(C2CC(N(O)C(N)=O)C(CO)O2)c(=O)[nH]c1=O (stereo unspecified)', '>', 100);

* * *

A collection of compounds and their measured TGI
test system: HOP-62 NSCLC; assay: NCI tumour cell line growth inhibition, 48 h
Experimental readout: TGI

INSERT INTO assay_data (compound, reported_measurement) VALUES
  ('COc1ccc(C(=O)C(C(=O)CCC(=O)Nc2ccc(C)c(C)c2)c2ccc(OC)cc2)cc1 (centres undefined)', '> 100 µM'),
  ('O=C(NNC(=O)c1ccccc1SSc1ccccc1C(=O)NNC(=O)c1ccccc1S)c1ccccc1S', '> 100 µM'),
  ('CC(C)/C(Cl)=N\OC(=O)Nc1ccc(S(N)(=O)=O)cc1', '> 57.2 µM'),
  ('COc1ccc(-c2nc3sccn3c2/C(N)=N/C(=N)N)cc1OC', '58.3 µM');
